Target: T1, human tenascin-C rCd4-His-FBG (rat; human, UniProt P05540 207-392, limits assumed)
T1 construct: domain: domains 3 and 4; C-terminal FBG fusion; biotinylated in the ELISA and HTRF screens; also called Hu TNC; human TNC rCd4-His-FBG; not shown: 6His tag
T1 sequence (chain (part 1 of 2)): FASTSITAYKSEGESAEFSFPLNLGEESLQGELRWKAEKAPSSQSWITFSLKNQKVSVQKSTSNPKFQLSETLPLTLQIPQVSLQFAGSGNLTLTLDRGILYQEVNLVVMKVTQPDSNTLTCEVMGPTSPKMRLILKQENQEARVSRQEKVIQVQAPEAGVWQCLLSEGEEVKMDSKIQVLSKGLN
T1 sequence (chain (part 2 of 2)): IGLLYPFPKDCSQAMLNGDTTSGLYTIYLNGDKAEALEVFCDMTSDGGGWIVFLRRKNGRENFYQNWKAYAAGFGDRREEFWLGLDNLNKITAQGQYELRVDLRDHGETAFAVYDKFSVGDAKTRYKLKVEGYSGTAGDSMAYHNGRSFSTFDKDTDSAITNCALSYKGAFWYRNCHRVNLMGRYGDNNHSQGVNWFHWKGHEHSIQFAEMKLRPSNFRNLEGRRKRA
Experiment: SPR off-rate screen, captured IgG4 supernatant, 25 C
Reported koff values are given for each entry in this list.
Supply the numeric figure in s⁻¹, leaving out any unit text.

160_01_H4 human IgG4 (antibody, V domains shown, human IgG4 with hinge S241P; also called Antibody 160 01 H4 (derived from 2A5)) VH: EVRLVQSGAEVKKPGASVKVSCKVSGYTLTELSMHWVRQAPGKGLEWMGGFDPEDGETIYAQKFQGRVTMTEDTSTDTAYMELSSLRSEDTAVYYCATGRFVWEALTYWGQGTLVTVSS VL: DIQMTQSPASLPTSVGDRVTITCRASQYIQGFLNWYQQKPGKAPRLLIYAASTLQDGVPSRFSGSGYGTDFTLTISSLQPEDFATYYCQQSYSTPWTFGQGTKVEIKR	1.6e-05
180_11_F5 human IgG4 (antibody, V domains shown, human IgG4 with hinge S241P; also called Antibody 180 11 F5 (derived from B12)) VH: QVQLVESGGGLVQPGRSLRLSCAASGFTFDDYAMHWVRQAPGKGLEWVSGISGSGGSTYYADSVKGRFTISRDNAKNSLYLQMNSLRAEDTALYYCAKVMRTGLDTFDIWGQGTMVTVSS VL: DIQMTQSPASLPTPVGDRVTITCRASQYIQGFLNWYQQKPGKAPKLLIYDASNLETGVPSRFSGSGSGTDFTLTISSLQPEDFATYYCQQSYSTPQTFGQGTKVDIKR	2.6e-05
160_01_A4 human IgG4 (antibody, V domains shown, human IgG4 with hinge S241P; also called Antibody 160 01 A4 (derived from 2A5)) VH: EVRLVQSGAEVKKPGASVKVSCKVSGYTLTELSMHWVRQAPGKGLEWMGGFDPEDGETIYAQKFQGRVTMTEDTSTDTAYMELSSLRSEDTAVYYCATAQKETLGNAIWGQGTLVTVSS VL: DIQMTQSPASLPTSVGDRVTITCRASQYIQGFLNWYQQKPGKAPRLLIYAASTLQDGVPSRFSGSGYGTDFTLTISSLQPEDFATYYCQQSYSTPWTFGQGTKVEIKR	6.7e-06

Task: Report koff for 165_13_D4 human IgG4 (antibody, V domains shown, human IgG4 with hinge S241P) VH: QVQLVESGGGLVQPGRSLRLSCAASGFTFDDYAMHWVRQAPGKGLEWVSGISGSGGSTYYADSVKGRFTISRDNAKNSLYLQMNSLRAEDTALYYCAKGTVGEGDTFDIWGQGTMVTVSS VL: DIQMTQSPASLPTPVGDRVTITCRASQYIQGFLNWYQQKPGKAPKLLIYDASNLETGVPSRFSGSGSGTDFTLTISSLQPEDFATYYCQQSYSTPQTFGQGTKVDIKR
Result: 6.2e-07
